- Test system: MOLM-13
- Parameters: species or system AML cell lines (8); Primary HTS, single concentration about 10 uM, Cell Titer Glo viability; log10 luminescence, per cent inhibition relative to cycloheximide control
- run.conditions: 72 h, relative to cycloheximide control, log10 luminescence; inhibitor
Structures can show the parent of a compound that is named as a salt.
reported.property: MOLM-13 %inh (%)
Number in %, nothing else.

>>> df
                                   molecule  test_value
0  Nc1c(C(=O)c2cccc(C(O)(CO)CO)c2)cnn1-c1ccc(F)cc1       1.373

Request: Write down the reported MOLM-13 %inh of CCCCc1ncc(/C=C(\Cc2cccs2)C(=O)O)n1Cc1ccc(C(=O)O)cc1 [SJ000556755-1, EPROSARTAN MESYLATE] , test system: MOLM-13.
Response: -0.5594

Request: For the record O=C1NC(=NCCc2ccccc2Cl)S/C1=C\c1ccc2ncccc2c1 , what value of MOLM-13 %inh is listed for MOLM-13?
Response: 1.218

Request: API: value(readout=MOLM-13 %inh, system=MOLM-13) for record c1ccc(-c2n[nH]cc2-c2ccnc(-c3ccc(OCCn4ccnc4)cc3)c2)nc1
Response: 3.444

###

- System: M07e
- Design: species or system AML cell lines (8); Primary HTS, single concentration about 10 uM, Cell Titer Glo viability; log10 luminescence, per cent inhibition relative to cycloheximide control
- run.conditions: 72 h, relative to cycloheximide control, log10 luminescence; inhibitor
M07e %inh values by entry
The reply should contain only the number, in %.

                                   compound  target_of_assay  reported_property  test_value
0  Oc1c(Cl)cc(Cl)c(Cl)c1Cc1c(O)c(Cl)cc(Cl)c1Cl [SJ000285273-4, HEXACHLOROPHENE]             M07e          M07e %inh       10.84

Request: Need M07e %inh, item Cc1cc(O)cc(C)c1/C=C/c1cncc(C(=O)N(C)C)c1 [SJ000573241-1, U11962/4/2]
Response: 3.606

Request: For the compound shown here, CNC(=O)c1cncc(/C=C/c2c(Cl)cccc2Cl)c1 [SJ000573258-1, U12068/57/2] , give the reported M07e %inh.
Response: 7.169

Request: Looking for the measured M07e %inh of O=c1c(Oc2ccc(F)cc2F)cc2cnc(NC3CCOCC3)nc2n1CCCO [SJ000580962-1] , can you help?
Response: -0.6973

###

- Test system: MV4-11
- Design: species or system AML cell lines (8); Primary HTS, single concentration about 10 uM, Cell Titer Glo viability; log10 luminescence, per cent inhibition relative to cycloheximide control
- run.conditions: 72 h, relative to cycloheximide control, log10 luminescence, inhibitor, MV4-11 %inh, 10 µM
Listed below: MV4-11 %inh values for each entry.
Reply with just the number (in %).

Request: May I ask what MV4-11 %inh has been recorded for C[C@H](CS)C(=O)N1CCC[C@H]1C(=O)O [SJ000286908-8, CAPTOPRIL] ?
Response: -2.616

###

- Tested on: U937
- Parameters: species or system AML cell lines (8); Primary HTS, single concentration about 10 uM, Cell Titer Glo viability; log10 luminescence, per cent inhibition relative to cycloheximide control
- run.conditions: 72 h, relative to cycloheximide control, log10 luminescence; inhibitor
reported.property: U937 %inh
Write down the value, and be sure its unit follows.

molecule	U937 %inh
COc1ccccc1C(=O)c1cnc(NC2CCN(S(C)(=O)=O)CC2)nc1N [SJ000581142-1]	8.409%

Request: So what U937 %inh did Cn1cc(C2=C(N3CCOCC3)C(=O)NC2=O)c2ccccc21 [SJ000581016-1] get with U937?
Response: -0.03629%

Request: Hi! What's the reported U937 %inh for COC(C)(C)CCCC(C)C/C=C/C(C)=C/C(=O)O (stereo not shown) [SJ000561041-1, METHOPRENE ACID] on U937?
Response: 1.555%

Request: Record COC(=O)Nc1nc2cc(Oc3ccc(NC(=O)Nc4cccc(C(=O)O)c4)cc3)ccc2[nH]1 [SJ000573163-1, T261/87/3] : what is its U937 %inh with U937?
Response: 31.9%

Request: Give the reported U937 %inh for CC1=C(C(=O)Nc2cc(Cl)c3[nH]ncc3c2)C(c2ccc(C(F)(F)F)cc2)CC(=O)N1 (stereo not shown) [SJ000573181-1, SD204573-088A4] (system: U937).
Response: 8.409%

Request: Give U937 U937 %inh for CCC(=O)O[C@]1(C(=O)CCl)[C@@H](C)C[C@H]2[C@@H]3C[C@H](F)C4=CC(=O)C=C[C@]4(C)[C@@]3(F)[C@@H](O)C[C@@]21C [SJ000574311-1, HALOBETASOL PROPIONATE]
Response: 2.458%

Request: Lab note: need U937 %inh with U937 for entry O=C1NC(=NCCc2cccc(F)c2)S/C1=C\c1ccc2ncccc2c1 [SJ000581129-1] , please look it up.
Response: 84.57%
